- assayText: NCI Yeast Anticancer Drug Screen. Data for the bub3 strain (AID 167)
- settings: S. cerevisiae bub3 mutant strain, at 50.0 µM
This is part of a sample that, as a whole, favours compounds with a hit. Of some 79,000 tested, about 15% had one in any assay. Active and inactive are the calls of the source. Cut-off read from the data, not from the text of the source: active = growth inhibition above about 70%; inactive = the rest.
Choose one outcome from this list and give only that: true (1) = active, false (0) = inactive

Qu. Test call for this molecule, please: O=P(O)(O)C(O)c1ccccc1 (stereo unspecified)
Ans. false (0)

Qu. Test call for this molecule, please: [Co+2].[Co+2].[O-]CCCN=Cc1ccccc1[O-].[O-]CCCN=Cc1ccccc1[O-]
Ans. false (0)

Qu. Test call for this molecule, please: CCN(CCCl)c1cc(CN(C)C)cc(NC(=O)c2cc(C(=O)Nc3cc(CN(C)C)cc(N(CC)CCCl)c3)n(C)n2)c1
Ans. false (0)

Qu. Test call for this molecule, please: CCC[CH2][Sn]1([CH2]CCC)[O]c2ccccc2[O]1
Ans. true (1)

Qu. Test call for this molecule, please: O=P(O)(O)CCCP(=O)(O)O.[Zn+2]
Ans. false (0)

----------
Quick reference for growth inhibition among some molecules
- assayText: NCI Yeast Anticancer Drug Screen. Data for the rad50 strain (AID 155);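 note: 0% = growth of vehicle-only cultures of the same strain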
- settings: S. cerevisiae rad50 strain growth inhibition; at 50.0 µM; stronger effect = higher value
- Description: Growth inhibition of yeast strains with defined genetic alterations is measured as a screen for potential anti-cancer activity. Selected strains with alterations in DNA damage repair or cell cycle control were exposed to compounds and growth inhibition was measured relative to vehicle treated controls. The strain used in this assay is rad50
Compounds without any hit were thinned out: in the full panel of roughly 79,000, 15% have a hit.
Entry rule: numbers only, all in %.

Cc1cccc(NC(=O)C(=O)C2C(=O)NC(=O)NC2=O)c1C; 0.7
CCOc1ccc(P2(=S)SP(=S)(c3ccc(OCC)cc3)S2)cc1 (stereo unspecified); -11.3
CN1C2CCC1CC(OC(=O)C1CCC(C(=O)OC3CC4CCC(C3)N4C)(c3ccccc3)c3ccccc31)C2 (stereo unspecified); -45

Qu. Could you share which growth inhibition value was measured for c1ccc(-c2ccc[n+](CCC[n+]3cccc(-c4ccccn4)c3)c2)nc1 ?
Ans. 2.9

Qu. Could you share which growth inhibition value was measured for NC1CC2CCCCC2CC1c1ccccc1 (stereo unspecified) ?
Ans. 14.8

Qu. Could you share which growth inhibition value was measured for C[Si](C)(C)C#CC#C[Si](C)(C)C.[Ni].[Ni].[Ni].[Ni].[c-]1[c-][c-][cH-][c-]1.[c-]1[c-][c-][cH-][c-]1.[c-]1[c-][c-][cH-][c-]1.[c-]1[c-][c-][cH-][c-]1 ?
Ans. 11.7

Qu. Could you share which growth inhibition value was measured for NC(N)=NCCCCCCCCCCN=C(N)N ?
Ans. 0.45

----------
- assayText: NCI Yeast Anticancer Drug Screen. Data for the rad50 strain (AID 155);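 note: 0% = growth of vehicle-only cultures of the same strain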
- settings: S. cerevisiae rad50 strain growth inhibition; at 50.0 µM; stronger effect = higher value
About 79,000 compounds went through this panel and 15% of them were active in at least one assay; those are over-represented in the sample as a whole.
metricName: growth inhibition (%)
Entry rule: numbers only, all in %.

Please review the following examples before continuing.
O=C1NN(c2ccccc2)C(=O)C1c1ccccc1 (stereo not drawn); 24.2
Cc1nnc2cc3ccccc3cn12; 21
O=C1C(C(Nc2ccccc2)c2ccccc2)=C([O-])c2ccccc21.O=C1C(C(Nc2ccccc2)c2ccccc2)=C([O-])c2ccccc21.[Ni+2] (stereo not drawn); 63.3
O=C(CCl)N(CCO)CCO; -0.85
CC(COC(=O)NCc1ccccc1)OC(N)=O (stereo not drawn); -1.05
CSc1sc2ccccc2[s+]1; -10.8

Query compound follows.
Qu. Could you share which growth inhibition value was measured for CN(C)CCNC(=O)c1cccc(COC(=O)Nc2ccc(N(CCCl)CCCl)cc2)c1[N+](=O)[O-] ?
Ans. -3.55

Just for reference, PubChem BioAssay (NCI) is where these values come from.
